The measurements presented in this section are drawn from patent US20170089928A1.

TARGET OR SYSTEM: T1, Heat-denatured BSA (bovine serum albumin autoclaved for 15 minutes) (bovine, UniProt P02769 25-607)
T1 construct: also called heat-denatured BSA solution; reagent for detection
T1 sequence (P02769 25-607 limits assumed): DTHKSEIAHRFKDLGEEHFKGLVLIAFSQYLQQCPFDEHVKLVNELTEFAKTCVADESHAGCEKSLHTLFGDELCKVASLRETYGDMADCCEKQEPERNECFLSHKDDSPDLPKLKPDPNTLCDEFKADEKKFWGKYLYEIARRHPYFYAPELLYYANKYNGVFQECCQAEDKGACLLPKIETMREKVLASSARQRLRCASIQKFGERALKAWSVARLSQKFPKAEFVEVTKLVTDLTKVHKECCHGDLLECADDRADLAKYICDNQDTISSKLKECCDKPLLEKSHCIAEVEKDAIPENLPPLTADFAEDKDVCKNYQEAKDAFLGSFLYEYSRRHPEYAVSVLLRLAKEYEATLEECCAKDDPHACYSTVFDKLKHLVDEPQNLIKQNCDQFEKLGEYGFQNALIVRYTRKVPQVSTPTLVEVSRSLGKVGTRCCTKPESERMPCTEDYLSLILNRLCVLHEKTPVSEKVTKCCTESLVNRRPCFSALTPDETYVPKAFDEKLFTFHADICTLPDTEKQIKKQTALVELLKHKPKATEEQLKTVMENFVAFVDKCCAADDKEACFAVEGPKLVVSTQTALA
ASSAY NOTES: turbidity (OD550), Hill plot analysis; table row for nucleic acid 'Yes' (salmon sperm DNA, 10 µM); with nucleic acid (Yes)
QUANTITY MEASURED: pKd
// pKd: -log10(molar conc.)

The binder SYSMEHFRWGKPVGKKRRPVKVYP (also called basic peptide of interest) [partial ACTH peptide consisting of the amino acids of positions 1 to 24 of ACTH] showed pKd equal to 4.52
